Biological target: T1, CD70 ECD (antigen immobilized on the CM5 chip) (UniProt P32970 39-193)
T1 construct: extracellular domain; also called CD70 antigen
T1 sequence (looked up): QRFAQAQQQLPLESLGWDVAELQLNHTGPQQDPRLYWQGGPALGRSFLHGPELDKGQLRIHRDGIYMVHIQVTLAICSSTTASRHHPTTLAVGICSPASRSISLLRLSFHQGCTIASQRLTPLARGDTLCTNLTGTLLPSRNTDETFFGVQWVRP
Test: SPR (Biacore T200), CD70 ECD on CM5 chip, IgG as analyte
Experimental: The immobilization of antigen CD70 ECD was performed at 25° C. with HBS-EP as the running buffer. Sensor chip surface of flow cells 1, 4 were activated by freshly mixed 50 mmol/L N-Hydroxy succinimide (NHS) and 200 mmol/L 1-ethyl-3-(3-dimethylaminopropyl) carbodiimide hydrochloride (EDC) for 420s (10 μL/min). Afterwards, CD70 antigen diluted in 10 mmol/L NaAC (pH 4.5) was injected into flow cell 4 to achieve conjugation of the appropriate Response Unit, while flow cell 1 was set as a blank. […]
measurement label: Kd
Phrase the answer as number then unit, nothing more needed.

// below: answered binders
• 2E7, full IgG (antibody, V domains shown) VH: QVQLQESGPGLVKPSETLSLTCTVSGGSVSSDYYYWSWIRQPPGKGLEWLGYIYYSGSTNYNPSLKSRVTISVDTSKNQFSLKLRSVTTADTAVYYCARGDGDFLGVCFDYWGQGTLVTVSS VL: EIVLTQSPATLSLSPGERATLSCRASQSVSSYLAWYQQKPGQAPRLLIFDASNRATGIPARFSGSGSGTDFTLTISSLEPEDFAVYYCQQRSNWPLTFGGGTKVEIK = 14 nM
• 69A7 (parent antibody), full IgG (antibody, V domains shown, also called parent antibody 69A7) VH: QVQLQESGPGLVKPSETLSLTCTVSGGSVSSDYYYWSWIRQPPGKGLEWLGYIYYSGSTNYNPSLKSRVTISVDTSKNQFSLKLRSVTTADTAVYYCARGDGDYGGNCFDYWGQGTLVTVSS VL: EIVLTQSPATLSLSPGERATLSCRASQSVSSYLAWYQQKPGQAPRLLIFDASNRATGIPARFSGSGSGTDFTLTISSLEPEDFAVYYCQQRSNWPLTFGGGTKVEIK = 313 nM

Proceeding to the next binder to report its Kd.
Requested field: Kd. Item: 1H8, full IgG (antibody, V domains shown) VH: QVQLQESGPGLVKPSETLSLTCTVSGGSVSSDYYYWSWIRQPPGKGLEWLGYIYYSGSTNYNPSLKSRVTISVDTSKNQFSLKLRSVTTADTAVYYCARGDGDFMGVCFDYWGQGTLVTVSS VL: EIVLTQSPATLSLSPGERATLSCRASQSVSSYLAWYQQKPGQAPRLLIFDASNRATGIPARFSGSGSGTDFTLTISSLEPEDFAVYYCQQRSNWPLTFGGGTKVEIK
43.7 nM
